studySystem: human recombinant dopamine D3 receptor (Homo sapiens (Human), UniProt P35462)
Sequence (P35462 whole entry): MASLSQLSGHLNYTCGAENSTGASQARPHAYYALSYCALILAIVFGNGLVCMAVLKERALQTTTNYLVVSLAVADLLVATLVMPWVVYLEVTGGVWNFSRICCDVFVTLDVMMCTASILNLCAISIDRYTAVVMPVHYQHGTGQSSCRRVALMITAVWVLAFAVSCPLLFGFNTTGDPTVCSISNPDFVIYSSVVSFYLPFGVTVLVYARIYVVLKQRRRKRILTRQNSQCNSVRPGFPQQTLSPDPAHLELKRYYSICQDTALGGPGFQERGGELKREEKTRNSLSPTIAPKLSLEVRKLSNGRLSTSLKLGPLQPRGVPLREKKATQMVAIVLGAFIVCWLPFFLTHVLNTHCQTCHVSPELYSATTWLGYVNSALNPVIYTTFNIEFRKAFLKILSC
assayMethodText: Test of binding inhibition for dopamine D3 receptor ([3H]-Methylspiperone SPA)
assayConditions: Jump-In HEK cell membranes, 2 nM [3H]-Methylspiperone, 120 min at 25° C.; read-out: hD3_Ki
experimentalReadout: Ki (nM)
All answers are understood in nM, so give the number only.

Here's what some known entries look like.
1) Cc1nnc(CC(=O)N[C@H]2CC[C@](F)(CCN3CCc4nc(OCC(C)(F)F)sc4CC3)CC2)o1: 0.48
2) Cc1nnc(CC(=O)N[C@H]2CC[C@H](CCN3CCc4ccc(OC(C)C)nc4CC3)CC2)s1: 0.68

Shift focus to the following entry.
For record C[C@H](Oc1nc2c(s1)CCN(CC[C@H]1CC[C@H](NC(=O)Cc3cnn(C)n3)CC1)CC2)C(F)(F)F the listed Ki is 0.15
